# System: SN40R2
# EXPERIMENT DESCRIPTION: Protocol B: SN40R2 CellTiter-Glo cell viability
# ASSAY SETUP: 72 h, read-out: SN40R2 IC50 (Protocol B), SN40R2 cells, CellTiter-Glo, 72 hrs
EXPERIMENTAL ENDPOINT: IC50 (µM)
Please respond with the number in µM and leave the unit unwritten.

CO[C@]1(c2ccc(Cl)cc2)c2c(F)cc(C(C)(O)c3nccs3)cc2C(=O)N1Cc1ccc(Cl)cn1 (stereo partly shown)
13

Name the recorded IC50 of the molecule listed here: CO[C@]1(c2ccc(Cl)cc2)c2c(F)cc(C(C)(O)C3CCN(C)CC3)cc2C(=O)N1Cc1ccc(Cl)cn1 (single isomer, unassigned)
9

Name the recorded IC50 of the molecule listed here: CO[C@]1(c2ccc(Cl)cc2)c2c(F)cc(C(C)(O)C3CN(C)C3)cc2C(=O)N1Cc1ccc(Cl)cn1 (single isomer, unassigned)
11

Name the recorded IC50 of the molecule listed here: CO[C@]1(c2ccc(Cl)cc2)c2c(F)cc(C(C)(O)C3CCN(C(=O)CN(C)C)CC3)cc2C(=O)N1Cc1ccc(Cl)cn1 (stereo partly shown)
8

Name the recorded IC50 of the molecule listed here: CO[C@]1(c2ccc(Cl)cc2)c2c(F)cc(C(C)(O)C3CCN(c4ncccn4)CC3)cc2C(=O)N1Cc1ccc(Cl)cn1 (stereo partly shown)
12

Name the recorded IC50 of the molecule listed here: CO[C@]1(c2ccc(Cl)cc2)c2c(F)cc(C(C)(O)c3ncc[nH]3)cc2C(=O)N1Cc1ccc(Cl)cn1 (stereo partly shown)
13

Name the recorded IC50 of the molecule listed here: CO[C@]1(c2ccc(Cl)cc2)c2c(F)cc(C(C)(O)c3cn(C)c(C)n3)cc2C(=O)N1Cc1ccc(Cl)cn1 (single isomer, unassigned)
13
